System: TK-10
Assay: NCI tumour cell line growth inhibition, 48 h
Calls of active or inactive are those of the source. Rule as the data show it: active = GI50 up to about 1.1 µM and inactive = higher.
Can you answer with just one of these options? Yes = active, No = inactive

COMPOUND	TARGET ENTITY	ASSIGNED CLASS
Clc1ccc(/C=C/c2nc(Cl)c(-c3ccc(Cl)cc3)c(Cl)n2)cc1	TK-10	No

Test call, this compound: `Cc1ccc2ccccc2c1CSc1nc(N)nc2c1ncn2CC(C)C`
No

Test call, this compound: `CN(CCCNC(=O)c1nn(-c2ccccc2)c2c1Cc1ccccc1-2)CCCNC(=O)c1nn(-c2ccccc2)c2c1Cc1ccccc1-2`
No

Test call, this compound: `O=S(=O)(c1ccc(NC(=S)N/N=C/c2ccccc2O)cc1)N1CCCCC1`
Yes

Test call, this compound: O=C(Nc1ccc(Br)cc1)C(=O)C(C(=O)c1ccc(Cl)c(Cl)c1)C1OC(=O)c2ccccc21 (stereo not given)
No
